Each entry below lists one item and its recorded pIC50 value.
method description: NFkB reporter suppression in cystic fibrosis bronchial cells – cell-based, uHTS hits, panel, cytotoxicity readout, dose response (AID 624344)
experimental context: CF bronchial epithelial cells, PAF-induced NFkB reporter inhibition; with PAF, mean of runs
pIC50: −log10 of the molar value.

smiles string	pIC50
O=C(c1ccc(O)c(Br)c1)c1cc(Br)ccc1O	5.39
COc1cccc(Nc2ncnc3ccc(Br)cc23)c1	5.97
C=CCn1cnc2c(c1=O)c1nc3ccccc3nc1n2/N=C/c1cc(OC)c(OC)c(OC)c1	5.38
COc1ccc(-c2oc3ccc(-c4ccc5c(c4)OCO5)cc3c2C#CC2(O)CCCCC2)cc1	5.57
Cc1ccc(-n2cc(-c3ccccc3)c3c(N4CCOCC4)ncnc32)cc1	5.46
O=[N+]([O-])c1ccc2ncnc(N3CCN(Cc4ccc5c(c4)OCO5)CC3)c2c1	5.58
CC(=O)c1ccc(NC(=O)Nc2ccc3c(c2)N(C)C(=O)CS3)cc1	5.29
CC(=O)Oc1c(C(=O)c2nnc(C)o2)c(=O)n(Cc2ccccc2)c2ccccc12	5.63
COc1ccc(N(Cc2cc(=O)[nH]c3ccccc23)C(=O)CCl)cc1	5.54
COc1nc(N)c(C#N)c(-c2ccc(N(C)CCC#N)cc2)c1C#N	5.48
O=C1Cc2c([nH]c3ccc(Br)cc23)-c2ccccc2N1	5.43
